Biological target: JAK2 (Homo sapiens)
Construct: made in house; host or cells: SF9 insect cells (baculovirus)
Assay: JAK2 inhibition (Table 4)
Type: biochemical
Details: read-out: JAK2 Ki
Entries annotated with measured Ki
Kindly answer with a numeric value in nM, unit omitted.

{"columns": ["compound", "Ki (nM)"],
 "data": [
  ["CC(C)(C)OC(=O)N[C@H]1CC[C@H](n2nnc3cnc4[nH]ccc4c32)CC1", 32.3]
]}

Record "N#CCCN1CCC(n2c(Cc3cccc(C#N)c3)nc3cnc4[nH]ccc4c32)CC1" has JAK2 (Homo sapiens) Ki equal to 252

Record OCc1nc2cnc3[nH]ccc3c2n1C1CC2CCC1O2 (single isomer, unassigned) [Example 852] has JAK2 (Homo sapiens) Ki equal to 140

Record "N#CCCN1CCC(n2c(CCn3cccn3)nc3cnc4[nH]ccc4c32)CC1" has JAK2 (Homo sapiens) Ki equal to 55.7

Record NC1CCCC(n2cnc3cnc4[nH]ccc4c32)C1 (single isomer, unassigned) [Example 367] has JAK2 (Homo sapiens) Ki equal to 90.4

Record "CS(=O)(=O)N1CCC[C@@H](n2cnc3cnc4[nH]ccc4c32)C1" has JAK2 (Homo sapiens) Ki equal to 6.5

Record "c1cncc(Cc2nc3cnc4[nH]ccc4c3n2C2CCOCC2)c1" has JAK2 (Homo sapiens) Ki equal to 1450

Record "COCC(=O)NCCc1nc2cnc3[nH]ccc3c2n1C1CCN(CCC#N)CC1" has JAK2 (Homo sapiens) Ki equal to 22

###

Biological target: JAK3 (Homo sapiens)
Construct: made in house; host or cells: SF9 insect cells (baculovirus)
Test: JAK3 inhibition (Table 4)
Assay type: biochemical
Conditions: read-out: JAK3 Ki
Entries annotated with measured pKi
Would you please state pKi, meaning minus log10 of the concentration in mol/L, as a bare number?

Sure, the documented pKi for C[C@@H](O)c1nc2cnc3[nH]ccc3c2n1[C@H]1CCCOC1 [Example 199] is 6.96

Sure, the documented pKi for CC1CN(Cc2ccccc2)CCC1n1cnc2cnc3[nH]ccc3c21 (racemic) [Example 149] is 7.69

Sure, the documented pKi for c1cc2c(ncc3ncn(C4CCCOC4)c32)[nH]1 (single isomer, unassigned) [Example 466] is 7.12

Sure, the documented pKi for CC1(n2cnc3cnc4[nH]ccc4c32)CCN(Cc2cncs2)CC1 [Example 755] is 7.03

Sure, the documented pKi for CC1(n2cnc3cnc4[nH]ccc4c32)CCN(C(=O)CC#N)CC1 [Example 579] is 5.87

Sure, the documented pKi for C[C@@H](O)c1nc2cnc3[nH]ccc3c2n1C1CCN(CC(F)F)CC1 [Example 916] is 7.20

Sure, the documented pKi for C[C@@H](O)c1nc2cnc3[nH]ccc3c2n1[C@H]1CCN(CCC#N)C1 [Example 893] is 7.22

###

Biological target: JAK1 (Homo sapiens, UniProt P23458)
Construct: made in house; host or cells: SF9 insect cells (baculovirus)
Sequence (P23458 852-1154): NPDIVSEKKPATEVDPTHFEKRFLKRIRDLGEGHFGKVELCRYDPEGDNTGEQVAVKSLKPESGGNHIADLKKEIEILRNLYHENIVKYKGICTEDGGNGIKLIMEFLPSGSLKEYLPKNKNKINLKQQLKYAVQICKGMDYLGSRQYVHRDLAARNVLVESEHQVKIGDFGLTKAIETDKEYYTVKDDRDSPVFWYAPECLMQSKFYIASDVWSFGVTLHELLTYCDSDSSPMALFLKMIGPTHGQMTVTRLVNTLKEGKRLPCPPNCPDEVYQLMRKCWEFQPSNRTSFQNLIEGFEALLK
Experiment: JAK1 inhibition (Table 4)
Format: biochemical
Settings: read-out: JAK1 Ki
pKi: −log10 of the molar value.
If the reported pKi equals or exceeds 8, assign y. If not, assign n.

Worked cases, answers included:
{"columns": ["compound", "category"],
 "data": [
  ["CC(C)NC(=O)Cc1nc2cnc3[nH]ccc3c2n1C1CCCOC1 (racemic) [Example 963]", "n"],
  ["CNc1nc2cnc3[nH]ccc3c2n1C1CCN(CCC#N)CC1 [Example 771]", "y"],
  ["O=C(CN1CCC(n2cnc3cnc4[nH]ccc4c32)CC1)c1ccccc1 [Example 74]", "y"],
  ["N#Cc1cccc(CN2CCC(n3c(CC(=O)N4CCC(F)(F)CC4)nc4cnc5[nH]ccc5c43)CC2)n1 [Example 309]", "n"],
  ["N#Cc1cccc(CN2CCC(n3cnc4cnc5[nH]ccc5c43)CC2)c1 [Example 49]", "y"]
]}

Please indicate if the recorded pKi for N#CCCN1CCC(n2c(CNC(=O)c3ccccc3F)nc3cnc4[nH]ccc4c32)CC1 [Example 501] meets or exceeds 8. y

Please indicate if the recorded pKi for c1cc2c(ncc3nc(C4CC4)n(C4CCNCC4)c32)[nH]1 [Example 298] meets or exceeds 8. n

###

Biological target: TYK2 (Homo sapiens)
Sequence (P29597 873-1187): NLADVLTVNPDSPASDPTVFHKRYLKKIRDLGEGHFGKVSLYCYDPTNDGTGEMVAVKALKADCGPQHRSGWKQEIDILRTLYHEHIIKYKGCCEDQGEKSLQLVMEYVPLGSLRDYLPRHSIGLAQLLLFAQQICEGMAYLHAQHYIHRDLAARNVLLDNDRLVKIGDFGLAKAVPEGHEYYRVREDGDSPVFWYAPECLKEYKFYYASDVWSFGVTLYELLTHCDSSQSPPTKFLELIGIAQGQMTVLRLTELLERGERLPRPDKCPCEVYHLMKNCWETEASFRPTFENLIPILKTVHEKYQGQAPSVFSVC
Class (required): determined from Ki; valid ranges are bottom (below 80 nM), middle (80 nM to below 400 nM), top (400 nM or more)

Hey, which category is CC1CN(Cc2cncnc2)CCC1n1cnc2cnc3[nH]ccc3c21 (racemic) [Example 343] in, do you know? middle

Hey, which category is "N#Cc1ccc(S(=O)(=O)N2CCC(n3cnc4cnc5[nH]ccc5c43)CC2)c(Cl)c1" in, do you know? bottom

Hey, which category is "CC(C)(C)OC(=O)N[C@@H]1CC[C@H](n2cnc3cnc4[nH]ccc4c32)C1" in, do you know? middle

Hey, which category is O=C1OC(CO)CN1[C@H]1CC[C@H](n2cnc3cnc4[nH]ccc4c32)CC1 (stereo partly shown) in, do you know? bottom

Hey, which category is "CC(=O)N(C)CCc1nc2cnc3[nH]ccc3c2n1C1CCN(CCC#N)CC1" in, do you know? middle

###

Target: JAK3 (Homo sapiens)
Construct: made in house; host or cells: SF9 insect cells (baculovirus)
Assay: JAK3 inhibition (Table 4)
Format: biochemical
Conditions: read-out: JAK3 Ki
Class (required): determined from Ki; valid ranges are class 0 (below 30 nM), class 1 (30 nM to below 200 nM), class 2 (200 nM or more)

{"columns": ["molecule", "category"],
 "data": [
  ["N#Cc1cccc(S(=O)(=O)N2CC[C@@H](n3cnc4cnc5[nH]ccc5c43)C2)c1", "class 2"],
  ["CN1CCC[C@H]1C(=O)N1CCC(n2nnc3cnc4[nH]ccc4c32)CC1", "class 2"],
  ["O=C(c1cccnc1)N1CCC(n2cnc3cnc4[nH]ccc4c32)CC1", "class 2"],
  ["c1cncc(-c2nc3cnc4[nH]ccc4c3n2C2CCNCC2)c1", "class 2"]
]}

Hey, which category is "CC(C)c1nc2cnc3[nH]ccc3c2n1C1CCN(CCC#N)CC1" in, do you know? class 0

Hey, which category is "CC(C)(C#N)CN1CCC(n2cnc3cnc4[nH]ccc4c32)CC1" in, do you know? class 0

Hey, which category is "C[C@@H](O)c1nc2cnc3[nH]ccc3c2n1[C@H]1CC[C@@H](n2cncn2)CC1" in, do you know? class 0

###

Biological target: JAK3 (Homo sapiens, UniProt P52333)
Construct: made in house; host or cells: SF9 insect cells (baculovirus)
Sequence (P52333 783-1124): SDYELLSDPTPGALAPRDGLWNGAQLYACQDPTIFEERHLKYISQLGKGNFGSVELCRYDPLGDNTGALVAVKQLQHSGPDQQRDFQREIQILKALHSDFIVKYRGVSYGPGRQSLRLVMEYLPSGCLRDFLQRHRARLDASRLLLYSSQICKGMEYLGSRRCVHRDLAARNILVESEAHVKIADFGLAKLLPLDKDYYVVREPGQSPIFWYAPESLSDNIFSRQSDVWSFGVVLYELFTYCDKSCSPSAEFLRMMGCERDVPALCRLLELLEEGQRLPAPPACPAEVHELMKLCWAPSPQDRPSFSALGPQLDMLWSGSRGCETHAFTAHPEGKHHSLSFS
Test: JAK3 inhibition (Table 4)
Assay type: biochemical
Conditions: read-out: JAK3 Ki
Entries annotated with measured Ki
Kindly answer with a numeric value in nM, unit omitted.

Completed entries (count: 3):
{"columns": ["structure.as.smiles", "system.under.test", "Ki / nM"],
 "data": [
  ["CS(=O)(=O)N[C@H]1CC[C@@H](n2cnc3cnc4[nH]ccc4c32)CC1", "JAK3 (Homo sapiens, UniProt P52333)", 56.1],
  ["N#CCCN1CCC(n2c(CNC(=O)c3ccccc3F)nc3cnc4[nH]ccc4c32)CC1", "JAK3 (Homo sapiens, UniProt P52333)", 12.2],
  ["N#CCCN1CCC(n2c(CCNC(=O)C3CC3)nc3cnc4[nH]ccc4c32)CC1", "JAK3 (Homo sapiens, UniProt P52333)", 50.3]
]}

Okay, now this molecule:
Sure, the documented Ki for "NC(=O)Cc1nc2cnc3[nH]ccc3c2n1C1CCN(Cc2ccccc2)CC1" is 19.4

###

Entries annotated with measured Ki
Target: JAK2 (Homo sapiens, UniProt O60674)
Construct: made in house; host or cells: SF9 insect cells (baculovirus)
Sequence (O60674 812-1132): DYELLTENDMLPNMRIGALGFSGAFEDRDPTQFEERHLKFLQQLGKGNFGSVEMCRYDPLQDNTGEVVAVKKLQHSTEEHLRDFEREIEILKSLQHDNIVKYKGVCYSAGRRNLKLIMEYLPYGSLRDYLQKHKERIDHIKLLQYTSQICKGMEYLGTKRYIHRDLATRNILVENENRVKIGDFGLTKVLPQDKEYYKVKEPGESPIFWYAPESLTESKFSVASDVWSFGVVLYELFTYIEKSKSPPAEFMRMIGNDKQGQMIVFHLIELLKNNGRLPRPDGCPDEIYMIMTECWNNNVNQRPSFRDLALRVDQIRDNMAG
Experiment: JAK2 inhibition (Table 4)
Type: biochemical
Details: read-out: JAK2 Ki
Kindly answer with a numeric value in nM, unit omitted.

{"columns": ["compound", "system.under.test", "Ki, nM"],
 "data": [
  ["C[C@@H](O)c1nc2cnc3[nH]ccc3c2n1[C@H]1CCCO1", "JAK2 (Homo sapiens, UniProt O60674)", 1220],
  ["COC(=O)N(C)[C@H]1CC[C@H](n2c(CO)nc3cnc4[nH]ccc4c32)CC1", "JAK2 (Homo sapiens, UniProt O60674)", 65.2],
  ["C[C@@H](O)c1nc2cnc3[nH]ccc3c2n1[C@@H]1COCCC1(F)F", "JAK2 (Homo sapiens, UniProt O60674)", 103]
]}

Okay, now this compound:
Sure, the documented Ki for "CC(C)CN[C@H]1CC[C@H](n2cnc3cnc4[nH]ccc4c32)CC1" is 95.8

###

Target: JAK2 (Homo sapiens, UniProt O60674)
Construct: made in house; host or cells: SF9 insect cells (baculovirus)
Experiment: JAK2 inhibition (Table 4)
Format: biochemical
Conditions: read-out: JAK2 Ki
metric.name: pKi
Would you please state pKi, meaning minus log10 of the concentration in mol/L, as a bare number?

Completed entries (count: 6):
{"columns": ["compound", "metric.name", "measured.value"],
 "data": [
  ["CC(=O)N1CCN(C(=O)Cc2nc3cnc4[nH]ccc4c3n2C2CCCOC2)CC1 (racemic)", "pKi", 6.44],
  ["O=C(CC(F)(F)F)NC1CCC(n2nnc3cnc4[nH]ccc4c32)C1 (racemic)", "pKi", 7.83],
  ["CCN1CCC(n2c(CCNC(=O)OC)nc3cnc4[nH]ccc4c32)C(F)(F)C1 (stereo not shown)", "pKi", 7.43],
  ["CC(C)NC(=O)Cc1nc2cnc3[nH]ccc3c2n1C1CCCOC1 (racemic)", "pKi", 6.72],
  ["N#CCCn1ncc2c1CC[C@@H](n1cnc3cnc4[nH]ccc4c31)C2", "pKi", 7.43],
  ["Cn1ccc(CCc2nc3cnc4[nH]ccc4c3n2C2CCN(CCC#N)CC2)n1", "pKi", 7.05]
]}

Record "O=C([C@@H]1COCCN1)N1CCC(n2cnc3cnc4[nH]ccc4c32)CC1" has JAK2 (Homo sapiens, UniProt O60674) pKi equal to 7.11

Record "c1coc(CN2CCC[C@@H](n3cnc4cnc5[nH]ccc5c43)C2)n1" has JAK2 (Homo sapiens, UniProt O60674) pKi equal to 7.14

Record "COCC(=O)NCc1nc2cnc3[nH]ccc3c2n1C1CCN(CCC#N)CC1" has JAK2 (Homo sapiens, UniProt O60674) pKi equal to 7.98
